biological target: UniProt:P43490; test: Cellular NAD+ modulation assay in SH-SY5Y cells with doxorubicin; type: cell-based; conditions: Neuroblastoma SH-SY5Y cells, 40 hours, cellular NAD levels
Measurement label: SY5Y (human) NAD Cell Dox AC0.3 (µM)

{"columns": ["Compound", "Measurement label", "Obs value"],
 "data": [
  ["Cc1nc(C(=O)N[C@H](C)c2cccc(F)n2)nc(NCCc2cn[nH]c2)c1C [Compound 4]", "SY5Y (human) NAD Cell Dox AC0.3", 0.07],
  ["Cc1nc(C(=O)NC(c2cccc(F)c2)c2nccn2C)nc(NCCc2cn[nH]c2)c1C (stereo not drawn) [Compound 20]", "SY5Y (human) NAD Cell Dox AC0.3", 2.97],
  ["Cc1nc(C(=O)N2CCOCC2c2cccc(F)c2)nc(NCCc2cn[nH]c2)c1C (stereo not drawn) [Compound 7]", "SY5Y (human) NAD Cell Dox AC0.3", 0.19]
]}

---

Entries and their AC1.4 Human values follow.
target: human NAMPT (Homo sapiens (Human)); test: Human recombinant enzyme assay (NMN fluorescence biochemical assay); settings: concentration of compound that generates 40% higher activity over basal; 6 nM human NAMPT, 60 min
Sequence (P43490 whole entry): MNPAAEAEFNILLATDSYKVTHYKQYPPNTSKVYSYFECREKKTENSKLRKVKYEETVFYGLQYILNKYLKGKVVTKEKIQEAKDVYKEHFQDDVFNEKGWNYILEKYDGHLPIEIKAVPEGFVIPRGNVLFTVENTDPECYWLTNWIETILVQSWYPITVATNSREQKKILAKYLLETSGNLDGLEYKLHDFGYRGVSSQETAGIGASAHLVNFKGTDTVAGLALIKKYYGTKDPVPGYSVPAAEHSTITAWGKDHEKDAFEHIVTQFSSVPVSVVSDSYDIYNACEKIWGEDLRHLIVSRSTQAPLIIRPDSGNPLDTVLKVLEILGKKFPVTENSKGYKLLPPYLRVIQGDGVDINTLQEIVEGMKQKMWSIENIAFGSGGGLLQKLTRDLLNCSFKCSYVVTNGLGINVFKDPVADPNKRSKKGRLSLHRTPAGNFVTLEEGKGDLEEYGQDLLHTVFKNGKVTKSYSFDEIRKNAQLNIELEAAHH
Measurement label: AC1.4 Human

{"columns": ["Compound", "Obs value"],
 "data": [
  ["Cc1nc(C(=O)NCc2cccc(F)n2)nc(NCCc2cn[nH]c2)c1C [Compound 55]", "0.375 µM"],
  ["Cc1nc(C(=O)Nc2ccccc2)nc(NCCc2cn[nH]c2)c1C [Compound 140]", "4.0885 µM"],
  ["Cc1nc(C(=O)NC(C)(C)c2cccnc2)nc(NCCc2cn[nH]c2)c1C [Compound 121]", "2.5075 µM"],
  ["COc1cccnc1[C@@H](C)NC(=O)c1nc(C)c(C)c(NCCc2cn[nH]c2)n1 [Compound 124]", "2.6905 µM"],
  ["Cc1nc(C(=O)NCc2ccncc2)nc(NCCc2cn[nH]c2)c1C [Compound 133]", "3.5315 µM"],
  ["Cc1nc(C(=O)NC(c2cccc(F)c2)c2ncco2)nc(NCCc2cn[nH]c2)c1C (stereo not shown) [Compound 23]", "0.0955 µM"],
  ["Cc1nc(C(=O)N(C)C(c2cccc(F)c2)c2nccn2C)nc(NCCc2cn[nH]c2)c1C (stereo not shown) [Compound 5]", "0.0235 µM"]
]}

Attribution: patent US20240067631A1
